Measurement Notes: in vivo
Run Parameters: male, Swiss Albino, mouse, iv, 1 mg/kg, Plasma concentration
Where a SMILES comes first, the peptide text is derived from it. [ ]: non-standard residue; d: D form. dNMeI = CC[C@@H](C)[C@@H](NC)C(=O)O; NMeL = CN[C@@H](CC(C)C)C(=O)O
Outcome Measure: level at 0.5 h (ng/mL)
Give your result in ng/mL as a bare value.

Read off the recorded level at 0.5 h for CC[C@@H](C)[C@H]1NC(=O)[C@H]([C@@H](C)CC)NC(=O)[C@H](CC(C)C)N(C)C(=O)[C@H]2CCCN2C(=O)[C@@H]([C@H](C)CC)NC(=O)[C@@H]([C@H](C)CC)N(C)C(=O)[C@H](CC(C)C)NC(=O)[C@H]2CCCN2C(=O)[C@@H]2CCCN2C(=O)[C@H](C(C)C)NC(=O)[C@H]2CCCN2C1=O [Design D11.3, VPpL*iip*LIip] (cyclo(I[dI][dP]VP[dP]L[dNMeI][dI][dP][NMeL])) 2010
